Each recorded value in this set is attributed to patent US8394825B2.

Test system: DU145 cells
Assay: Antiproliferative assay in DU145 cells, WST-1 cell proliferation assay, 96 hours (GI50)
Format: cell-based
Settings: Homo sapiens, DU-145, 96 hours post-treatment, triplicate
Reported GI50 by item:

Some compounds with recorded GI50:
Measured GI50 for this entry COc1cc2c(cc1OCc1ccccc1)CCN(C(=O)c1cc(OC)c(OC)c(OC)c1)C2=O [compound 134] on DU145 cells: > 100 µM

Measured GI50 for this entry COc1cc2c(cc1OCc1ccccc1)CCN(S(=O)(=O)c1cccc(C(F)(F)F)c1)C2 [compound 172] on DU145 cells: > 100 µM

Measured GI50 for this entry COc1cc2c(cc1O)CCN(Cc1ccccc1OC)C2 [compound 41] on DU145 cells: > 100 µM

Measured GI50 for this entry COc1ccc(C(=O)N2CCc3cc(OCc4ccccc4)ccc3C2)cc1OC [compound 109] on DU145 cells: 10 to 50 µM

Measured GI50 for this entry COc1cc2c(cc1O)CCN(C(=O)c1ccccc1OC)C2 [compound 115] on DU145 cells: 50 to 100 µM

Could you now consider this next compound?
Measured GI50 for this entry COc1cc2c(cc1O)CCN(S(=O)(=O)c1ccccc1C#N)C2 [compound 183] on DU145 cells: > 100 µM

###

Reported melting point by item:

Some compounds with recorded melting point:
"COc1cccc(C(=O)N2CCc3cc(O)c(OC)cc3C2)c1" has a reported melting point of 141 to 142 °C

"COc1cc2c(cc1O)CCN(Cc1ccc(OC)c(OC)c1)C2" has a reported melting point of 146 to 147 °C

"COc1ccc(CN2CCCc3cc(OCc4ccccc4)c(OC)cc3C2)cc1" has a reported melting point of 87 to 88 °C

Continuing:
"COc1cc(CN2CCc3cc(OCc4ccccc4)c(OC)cc3C2=O)cc(OC)c1" has a reported melting point of 82 to 83 °C

###

MEASURED_METRIC: melting point

"COc1cc2c(cc1O)CCN(S(=O)(=O)c1cccc(C(F)(F)F)c1)C2" has a reported melting point of 178 to 180 °C

"COc1ccc(OC)c(CN2CCc3cc(O)c(OC)cc3C2)c1" has a reported melting point of 104 to 105 °C

Could you now consider this next molecule?
"COc1cc2c(cc1O)CCN(C(=O)c1ccc(C#N)cc1)C2=O" has a reported melting point of 198 to 199 °C

###

MEASURED_METRIC: melting point

Some molecules with recorded melting point:
CCOC1CN(Cc2ccccc2OC)Cc2cc(OC)c(O)cc21 (stereo not drawn) has a reported melting point of 101 to 102 °C

"COc1cc2c(cc1O)CCN(S(=O)(=O)c1ccccc1C#N)C2" has a reported melting point of 164 to 167 °C

"COc1cc2c(cc1O)CCN(Cc1cc(F)cc(F)c1)C2" has a reported melting point of 110 to 111 °C

COc1ccccc1CN1Cc2cc(OC)c(OCc3ccccc3)cc2C(OC)C1 (stereo not drawn) has a reported melting point of 101 to 102 °C

"COc1ccc(CN2CCc3cc(O)ccc3C2)c(OC)c1" has a reported melting point of 149 to 152 °C

"COc1ccc(CN2CCc3cc(O)c(OC)cc3C2)cc1" has a reported melting point of 162 to 163 °C

Continuing:
"COc1cc(OC)cc(C(=O)N2Cc3cc(OC)c(OS(N)(=O)=O)cc3CC2(C)C)c1" has a reported melting point of > 180 °C (dec.)

"COc1cc2c(cc1O)CCN(C(=O)c1cccc(C#N)c1)C2=O" has a reported melting point of 197 to 198 °C

"COc1cccc(S(=O)(=O)N2CCc3cc(O)c(OC)cc3C2)c1" has a reported melting point of 168 to 170 °C

COc1cc2c(cc1OS(N)(=O)=O)CC(C)(C)N(C(=O)c1cc(OC)c(OC)c(OC)c1)C2C (stereo not drawn) has a reported melting point of 170 to 173 °C

"COc1ccc(CN2CCc3cc(OCc4ccccc4)c(OC)cc3C2)cc1OC" has a reported melting point of 98 to 99 °C

"COc1ccc(C(=O)N2CCc3cc(OCc4ccccc4)c(OC)cc3C2=O)cc1" has a reported melting point of 151 to 152 °C

"COc1cccc(S(=O)(=O)N2CCc3cc(OCc4ccccc4)c(OC)cc3C2)c1" has a reported melting point of 124 to 125 °C

"COc1cc(OC)cc(C(=O)N2CCc3cc(OCc4ccccc4)c(OC)cc3C2=O)c1" has a reported melting point of 180 to 181 °C

"COc1cc(OC)cc(C(=O)N2CCc3cc(O)c(OC)cc3C2=O)c1" has a reported melting point of 198 to 199 °C

"COc1ccc(CN2CCCc3cc(O)c(OC)cc3C2)cc1" has a reported melting point of 105 to 107 °C

"CCOc1ccc(CN2CCc3cc(O)ccc3C2)cc1OCC" has a reported melting point of 150 to 154 °C
